- tested_target: KRAS-WT (Homo sapiens, UniProt P01116)
- Sequence (P01116 with tags, fused parts or gaps isoform P01116-2): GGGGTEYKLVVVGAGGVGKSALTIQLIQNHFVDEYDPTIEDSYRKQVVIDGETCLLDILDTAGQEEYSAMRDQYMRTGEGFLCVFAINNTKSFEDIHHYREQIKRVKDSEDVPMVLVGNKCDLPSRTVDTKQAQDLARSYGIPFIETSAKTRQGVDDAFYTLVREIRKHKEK
- procedure_details: SOS-catalyzed nucleotide exchange assay (Procedure A, TR-FRET), KRAS-WT
- Format: biochemical
- condition_context: nucleotide exchange, read-out: KRAS WT GNE IC50
measurement_type: pIC50
Please keep in mind that pIC50 is minus log10 of the molar concentration; only the number is needed.

• Cc1cc2[nH]nc(C)c2c(-c2nccc3c4c(N5CCOC[C@@](C)(O)C5)nc(OC[C@@]56CCCN5C[C@H](F)C6)nc4n(C)c23)c1C(F)F (single isomer, unassigned) = 5.65

Asked: Note down pIC50 recorded for `Cc1cc2[nH]ncc2c(-c2nccc3c4c(N5CCOC[C@@](C)(O)C5)nc(OC[C@]5(CN(C)C)CC5(F)F)nc4n(C)c23)c1C(F)(F)F`
Given back: 6.90

Asked: Note down pIC50 recorded for `[2H]C([2H])([2H])N(C[C@@]1(COc2nc(N3CCOC[C@@](C)(O)C3)c3c(n2)sc2c(-c4c(C5(F)CC5)c(Cl)cc5[nH]ncc45)nccc23)CC1(F)F)C([2H])([2H])[2H]`
Given back: 8.07
